system: L1210 leukemia ip in BDF1 mice, survival T/C; assay: NCI In Vivo Anticancer Drug Screen. Data for tumor model L1210 Leukemia (intraperitoneal) in B6D2F1 (BDF1) mice; conditions: endpoint: mean survival time; dose: 25.0 mg/kg/injection; schedule: Q04DX003 (ip); vehicle: Klucel (hydroxypropylcellulose) (HPC); higher = longer survival
Inconclusive results and toxic doses are left out.
propertyName: T/C

{"moleculeSmiles": "CCCCCCCCCCCCCCCCCCS(=O)(=O)CCCl", "propertyName": "T/C", "recordedResult": "107 % of control"}
{"moleculeSmiles": "CC1(C)C(=O)N(Br)C(=O)N1Br", "propertyName": "T/C", "recordedResult": "103 % of control"}
{"moleculeSmiles": "COc1ccc2nccc(/C=C/CC3CCN(C(C)=O)CC3)c2c1", "propertyName": "T/C", "recordedResult": "107 % of control"}
{"moleculeSmiles": "CC(C)NNC(=O)c1ccccc1N", "propertyName": "T/C", "recordedResult": "96 % of control"}
{"moleculeSmiles": "COc1cc(C=C(C#N)C#N)cc(I)c1O", "propertyName": "T/C", "recordedResult": "98 % of control"}
{"moleculeSmiles": "Cc1ccccc1-n1c(C)cc(=O)c(C(=O)Cl)c1C", "propertyName": "T/C", "recordedResult": "95 % of control"}

---

Reported T/C values follow for various compounds
test system: L1210 leukemia ip in BDF1 mice, survival T/C; experiment: NCI In Vivo Anticancer Drug Screen. Data for tumor model L1210 Leukemia (intraperitoneal) in B6D2F1 (BDF1) mice; conditions: endpoint: mean survival time; dose: 200.0 mg/kg/injection; schedule: Q04DX003 (ip); vehicle: saline with Tween-80; higher = longer survival
Inconclusive results and toxic doses are left out.
propertyName: T/C

{"moleculeSmiles": "CCOc1ccc(NC(=O)Nc2ccccc2)cc1", "recordedResult": "94 % of control"}
{"moleculeSmiles": "CCc1nc(=S)c2ncn(CC)c2[nH]1", "recordedResult": "96 % of control"}
{"moleculeSmiles": "C/C=C/C(=O)Nc1cc(C(F)(F)F)ccc1Cl", "recordedResult": "109 % of control"}
{"moleculeSmiles": "COc1ccc(C)cc1NC(=O)Nc1cc(Cl)ccc1C", "recordedResult": "101 % of control"}
{"moleculeSmiles": "Fc1c(F)c(F)c(Oc2c(F)c(F)c(C(F)(F)F)c(F)c2F)c(F)c1F", "recordedResult": "92 % of control"}
{"moleculeSmiles": "CNC(=O)Nc1ccc(C(=O)NCC(=O)O)cc1", "recordedResult": "91 % of control"}

---

Reported T/C values follow for various compounds
tested on: L1210 leukemia ip in BDF1 mice, survival T/C; experiment: NCI In Vivo Anticancer Drug Screen. Data for tumor model L1210 Leukemia (intraperitoneal) in B6D2F1 (BDF1) mice; details: endpoint: mean survival time; dose: 100.0 mg/kg/injection; schedule: Q04DX003 (ip); vehicle: carboxymethylcellulose (CMC); higher = longer survival
Toxic doses and inconclusive results are not listed.
propertyName: T/C

{"moleculeSmiles": "CCCCCCCCCCCCCCCCCCNC(=O)Nc1cccc2ccccc12", "assaySystem": "L1210 leukemia ip in BDF1 mice, survival T/C", "propertyName": "T/C", "recordedResult": "106 % of control"}
{"moleculeSmiles": "CCCCCCC(=O)N(CCCCC)CCCCC", "assaySystem": "L1210 leukemia ip in BDF1 mice, survival T/C", "propertyName": "T/C", "recordedResult": "93 % of control"}
{"moleculeSmiles": "Cc1c2c(n(C)c1C(=O)N1CCOCC1)CCCC2=O", "assaySystem": "L1210 leukemia ip in BDF1 mice, survival T/C", "propertyName": "T/C", "recordedResult": "101 % of control"}
{"moleculeSmiles": "CCOc1ccccc1/C=C1\\C=Nc2ccccc21", "assaySystem": "L1210 leukemia ip in BDF1 mice, survival T/C", "propertyName": "T/C", "recordedResult": "98 % of control"}
